Tested on: HEK-293T
Experiment: Incucyte cell viability with HEK293T; also: unitless GR value; below 1 slowed growth and below 0 cell loss
Format: toxicity, cell-based
Conditions: human, 18 h, 10 µM, compound concentration 10 uM, replicate number 1
Recorded Metric: Growth Rate
Numbers only.

Compound	Growth Rate
COC(=O)c1ccc2c(c1)NC(=O)/C2=C(\Nc1ccc(-c2nccn2C)cc1)c1ccccc1	-0.26

Count: 2. Required value per item: Growth Rate.
1. CC(C)(C)C1CCc2c(sc(NC(=O)c3ccco3)c2C(=O)O)C1 (configuration not stated)
2. CC/C(=C(\c1ccc(O)cc1)c1ccc(OCCN(C)C)cc1)c1ccccc1

Key:
-0.24
-0.68

----------
Could you please report measured Growth Rate for the items listed next?
Tested on: HEK-293T
Experiment: Incucyte cell viability with HEK293T; also: unitless GR value; below 1 slowed growth and below 0 cell loss
Assay type: toxicity, cell-based
Details: human, 18 h, 10 µM, compound concentration 10 uM, replicate number 2
One number for each entry.

Compound	Growth Rate
Cn1cc(NC(=O)c2ccc3nc4n(c3c2)CCCNC4=O)nc1C(=O)NC1CCCC1	0.85
CCOC(=O)Nc1ccc2c(c1)N(C(=O)CN(CC)CC)c1ccccc1CC2	0.97
CCN1C(=CC(C)=O)Sc2ccc(OC)cc21	0.43
Nc1ncnc2[nH]c(-c3ccccc3)nc12	0.68
CC(C)(O)[C@H](F)CN1Cc2cc(NC(=O)c3cnn4cccnc34)c(N3CCOCC3)cc2C1=O	0.82

Count: 5. Required value per item: Growth Rate.
1. CCN1CCN(Cc2ccc(NC(=O)c3ccc(C)c(NC(=O)c4cncc(-c5cccs5)c4)c3)cc2C(F)(F)F)CC1
2. Cc1ccc(-c2cn3nc(C(=O)NC4(c5ccc(F)cc5)CN(C)C4)c(C(C)C)c3c(=O)[nH]2)cc1C
3. Cc1cn([C@@H](C)CC#N)c(=O)c2cc(Cn3nc(C(F)F)cc3Cl)nn12
4. CN(C)[C@H]1CCc2nc(NC(=O)c3cccc(Cn4cc(-c5ccc(C#N)cc5)cn4)c3)sc2C1.O=C(O)C(F)(F)F
5. CC(C)(O)c1ccc2c(c1)ncn2-c1cccc(-c2ccccc2C#N)c1

Key:
-0.61
0.21
0.77
0.68
0.48

Count: 7. Required value per item: Growth Rate.
1. Cc1c(NC(=O)COc2ccc(Cl)cc2C(=O)c2cc(F)cc(C(F)(F)F)c2)ccc(C(=O)O)c1F
2. Cl.Cl.Nc1nccc(-c2c(-c3ccc(F)cc3)ncn2C2CCCCC2)n1
3. Cl.Cl.O=C1c2ccccc2C(Cc2ccncc2)(Cc2ccncc2)c2ccccc21
4. Cc1cccc(F)c1C(=O)Nc1cnc(-c2cc3c(cc2Cl)OC(F)(F)O3)cn1
5. Cn1nc(C(=O)NCc2ccc(C(=O)O)cc2)cc1-c1ccc2[nH]ccc2c1
6. CC(C)S(=O)(=O)c1ccccc1Nc1nc(N[C@@H]2CCCN(CCCCCCCNC(=O)COc3cccc4c3C(=O)N(C3CCC(=O)N(C)C3=O)C4=O)C2)ncc1Cl (stereo partly drawn)
7. N=C(N)NCCC[C@@H](NC(=O)C(c1ccccc1)c1ccccc1)C(=O)NCc1ccc(CNC(N)=O)cc1.O=C(O)C(F)(F)F

Key:
1. 0.75
2. 0.44
3. 0.63
4. 0.31
5. 0.85
6. -0.5
7. 0.96

Exercise: Fill in the recorded Growth Rate for this compound, with HEK-293T as test system: Cc1cccc(CC(=O)N2CCc3c2ccc(-c2cn(C)c4ncnc(N)c24)c3F)n1
Key: 0.55

----------
Test system: U2OS
Experiment: Incucyte cell viability with U2OS; also: unitless GR value; below 1 slowed growth and below 0 cell loss
Assay type: toxicity, cell-based
Conditions: human, 24 h, 10 µM, compound concentration 10 uM, replicate number 2
Define the label as YES when Growth Rate is strictly less than 0.9 and as NO in all remaining cases.

Molecule	Label Class
C[C@]12CC[C@@H]3c4ccc(C(N)=O)cc4CC[C@H]3[C@@H]1CC=C2c1cncc(F)c1	NO
C=CC(=O)Nc1cc(-c2nn(C3CCC(N4CCN(C(C)=O)CC4)CC3)c3ncnc(N)c23)ccc1Oc1ccccc1 (stereo not given)	YES

Note: attention shifts to another entry.
Exercise: Determine whether this molecule shows Growth Rate lower than 0.9 (ties excluded): CN1CCN(C(=O)Cc2ccc(N/C(=C3\C(=O)Nc4cc(Cl)ccc43)c3ccccc3)cc2)CC1
Key: YES

----------
Test system: HEK-293T
Assay: Incucyte cell viability with HEK293T; also: unitless GR value; below 1 slowed growth and below 0 cell loss
Assay type: toxicity, cell-based
Conditions: human, 18 h, 10 µM, compound concentration 10 uM, replicate number 2
Label Met for high-side Growth Rate (at or above 0.07) and Not met for low-side Growth Rate (below it).

Molecule	Label Class
CC(=O)c1ccc2c(c1)/C(=C(/Nc1cccc(C#N)c1)c1ccc3c(c1)OCCO3)C(=O)N2	Not met

Exercise: Hi team, for CC(C)Oc1ccc(F)c(-c2cnc(N)c(C(=O)Nc3cnccc3N3CCC[C@@H](C(=O)O)C3)n2)c1 , is the recorded Growth Rate at or above 0.07?
Key: Not met

Exercise: Hi team, for NCC1CCC(CNc2nc(NCc3ccccc3OC(F)(F)F)ncc2[N+](=O)[O-])CC1 (configuration not stated) , is the recorded Growth Rate at or above 0.07?
Key: Not met

Exercise: Hi team, for CC(C)N1CCN(Cc2cnc(-c3cc(-c4cccc5[nH]ccc45)cc4[nH]ncc34)o2)CC1 , is the recorded Growth Rate at or above 0.07?
Key: Met

Exercise: Hi team, for CCC(=O)N[C@@H]1CC[C@H](C(=O)N(C)c2ccc(-c3nc4ccccc4o3)cc2)C1 , is the recorded Growth Rate at or above 0.07?
Key: Met

Exercise: Hi team, for CN1CCN(c2ccc(C(=O)Nc3n[nH]c4ccc(Cc5cc(F)cc(F)c5)cc34)c(NC3CCOCC3)c2)CC1 , is the recorded Growth Rate at or above 0.07?
Key: Not met

Exercise: Hi team, for COc1ccc(Br)cc1S(=O)(=O)NC(=O)/C=C/c1cc(Cl)ccc1Cc1ccc2ccccc2c1 , is the recorded Growth Rate at or above 0.07?
Key: Met

Exercise: Hi team, for COc1cc(-c2cncc(-c3cnn(C4CCNCC4)c3)c2)cc(OC)c1OC , is the recorded Growth Rate at or above 0.07?
Key: Met

Exercise: Hi team, for CCCS(=O)(=O)Nc1ccc(F)c(Nc2ncnc3cnc(-n4cnc(C)c4)nc23)c1F , is the recorded Growth Rate at or above 0.07?
Key: Met

Exercise: Hi team, for CCOc1ccc(S(=O)(=O)Nc2ccc(Cl)cc2C#Cc2cnc(C(=O)[O-])cc2OC)c2ncccc12.[K+] , is the recorded Growth Rate at or above 0.07?
Key: Met

Exercise: Hi team, for CC(C)n1cc(-c2ccc(N3CCN(C)CC3)c(NC(=O)c3ccc(-c4ccncc4)o3)c2)cn1 , is the recorded Growth Rate at or above 0.07?
Key: Met

Exercise: Hi team, for COc1ccc(CSc2nnc(-c3ccc4ncsc4c3)o2)cc1C(F)(F)F , is the recorded Growth Rate at or above 0.07?
Key: Met

Exercise: Hi team, for Cn1ccc(Cn2cnc(-c3ccc(F)cc3)c2-c2ccnc3[nH]ccc23)n1 , is the recorded Growth Rate at or above 0.07?
Key: Met

Exercise: Hi team, for CCNc1ccc(-c2nn(-c3ccccc3C)c3c2C(C)Cc2nc(NC(=O)OC)sc2-3)cn1.O=C(O)C(F)(F)F (configuration not stated) , is the recorded Growth Rate at or above 0.07?
Key: Not met

Exercise: Hi team, for O=C(NC1CCNCC1)c1n[nH]cc1NC(=O)c1c(Cl)cccc1Cl , is the recorded Growth Rate at or above 0.07?
Key: Not met

Exercise: Hi team, for Cc1c(CN2CCC3(CC2)CN(c2ncnc4sc(CC(F)(F)F)cc24)C3)ccc2c1cc(C#N)n2CC(N)=O , is the recorded Growth Rate at or above 0.07?
Key: Met

----------
Could you please report measured Growth Rate for the items listed next?
Tested on: U2OS
Experiment: Incucyte cell viability with U2OS; also: unitless GR value; below 1 slowed growth and below 0 cell loss
Assay type: toxicity, cell-based
Details: human, 18 h, 10 µM, compound concentration 10 uM, replicate number 1
Answers are plain numbers.

Compound Structure	Growth Rate
Cc1cc(-c2nncc3c(C(C)(C)C)c(OCc4ncnn4C)nn23)no1	0.82
Cc1ccc(-n2nc(C(C)(C)C)cc2NC(=O)Nc2ccccc2F)cc1	0.79

Continue with the next compound.
Exercise: I'd like to know its Growth Rate. The compound in question is CCc1ncnc(N2CCN(C(C)=O)CC2)c1C#Cc1ccc(N)nc1.Cl.Cl
Key: 0.73

----------
Could you please report measured Growth Rate for the items listed next?
Tested on: U2OS
Assay: Incucyte cell viability with U2OS; also: unitless GR value; below 1 slowed growth and below 0 cell loss
Type: toxicity, cell-based
Settings: human, 12 h, 10 µM, compound concentration 10 uM, replicate number 1
Answers are plain numbers.

Here is how some molecules turned out for Growth Rate.
Molecule	Value Reported
C[C@H](CCC(=O)[O-])[C@H]1CC[C@H]2[C@@H]3[C@@H](O)C[C@@H]4C[C@H](O)CC[C@]4(C)[C@H]3CC[C@]12C.[Na+]	0.47
C=CC(=O)Nc1cc(-c2nn(C3CCC(N4CCN(C(C)=O)CC4)CC3)c3ncnc(N)c23)ccc1Oc1ccccc1 (stereo not given)	-0.62
COc1cc(C(=O)NC2CCN(C)CC2)ccc1Nc1ncc2c(n1)N(C1CCCC1)CC(F)(F)C(=O)N2C	0.23
O=C(NCCS(=O)(=O)c1ccc(C(F)(F)F)cn1)c1ccc(Cl)cc1	0.98
Cc1c(NC(=O)c2cccn(-c3ccc(F)cc3)c2=O)ccc(Oc2ccnc(NC(=O)C3CC3)c2)c1C	0.92
C=CC(=O)Nc1cc(Nc2nccc(-n3cc(CN(C)C)c(-c4ccccc4)n3)n2)c(OC)cc1N1CCOCC1 [LAZERTINIB]	0.19
Cc1nn(-c2ccccc2)c(Nc2ccccc2C(=O)O)c1-c1cc2nccnc2c(F)c1F	1
COc1cc(F)ccc1-c1cc(Nc2cc(CS(C)(=N)=O)ccn2)ncc1F (stereo not given) [ENITOCICLIB]	0.57
O[C@]1(C(F)(F)F)CCCC[C@H]1Nc1ccc(F)cc1 [BAY-390]	0.57
COc1cccc(-c2c(C)c(Cc3c(F)cccc3C(F)(F)F)c3n(c2=O)[C@@H]([C@@H](N)c2ccccc2)CS3)c1F	0.52

Count: 5. Required value per item: Growth Rate.
1. CC(C)(O)CNC(=O)N1C(=O)N(c2cccc(C(F)(F)F)c2)C2=C(C(=O)CC2)[C@@H]1c1ccc(C#N)cc1
2. CN(C)CCCN1c2ccccc2Sc2ccc(Cl)cc21.Cl [CHLORPROMAZINE HYDROCHLORIDE]
3. Cc1cc(O)c(-c2ccc([C@@H](C)CN(C)C)cc2)c2c1[nH]c(=O)c1sccc12
4. O=C(CNCc1cc2ccccc2[nH]1)N[C@H]1CC[C@@H](c2nc3ccccc3[nH]2)CC1
5. CCc1cnn2c(NCc3ccc[n+]([O-])c3)cc(N3CCCCC3CCO)nc12 (stereo not given)

Key:
1. 0.58
2. 0.42
3. 0.42
4. 0.55
5. -0.08

Count: 6. Required value per item: Growth Rate.
1. Cc1nc2c([nH]1)c(=O)n(C)c(=O)n2Cc1ccco1 [FURAFYLLINE]
2. CCc1ccccc1C(=O)Nc1n[nH]c2c(C)c(F)c(C3C(C#N)=C(C)N(C)C(C)=C3C#N)cc12 [BAY-3827]
3. O=C(CCCN1CCC(O)(c2ccc(Cl)cc2)CC1)c1ccc(F)cc1 [HALOPERIDOL]
4. CNC(=O)c1ccc2c(c1)NC(=O)/C2=C(\Nc1ccc(CN2CCCCC2)cc1)c1ccccc1.Cl.O
5. O=C([O-])c1cc2cc(Cc3cccnc3)ccc2o1.[Na+]
6. O=C1NCCc2c(OCCCCN3CCCCC3)cccc21

Key:
1: 0.95; 2: 0.96; 3: -0.1; 4: 0.94; 5: 0.4; 6: 0.56

Count: 6. Required value per item: Growth Rate.
1. COc1cc(OC)cc(-c2cc3cnc(N)nc3nc2NC(=O)NC(C)(C)C)c1
2. Cc1c(-c2c(F)cc(C(N)=O)c3[nH]c4c(c23)CC[C@H](C(C)(C)O)C4)cccc1-n1c(=O)c2cccc(F)c2n(C)c1=O [BMS-986142]
3. COc1cnccc1Nc1nc(-c2nn(Cc3c(F)cc(OCCO)cc3F)c3ccccc23)ncc1OC
4. O=C(O)c1ccc(-c2c[nH]c3ncc(-c4ccccc4)cc23)cc1C1CCCC1 [GSK-650394]
5. COc1ccccc1S(=O)(=O)Nc1ccc2c(c1)CN(C)C(=O)N2
6. CC(=O)c1c(C)c2cnc(Nc3ccc(N4CCN(CCCCNC(=O)COc5cccc6c5C(=O)N(C5CCC(=O)NC5=O)C6=O)CC4)cn3)nc2n(C2CCCC2)c1=O (stereo not given)

Key:
1. 0.8
2. 0.52
3. -0.2
4. 0.79
5. 0.83
6. 0.99

Count: 5. Required value per item: Growth Rate.
1. C[C@@H](CN1CC[C@@]2(C)c3cccc(O)c3C[C@@H]1C2(C)C)OCc1ccccc1.Cl
2. CCOCCn1cc(C(=O)Nc2ccc(-n3nc(-c4cccnc4)cc3C(F)(F)F)cn2)ccc1=O [BI 1935]
3. CCOC(=O)c1ncn2c1[C@@H]1CCCN1C(=O)c1cc(OC)ccc1-2
4. Clc1cccc(-n2nnnc2NCc2ccccc2Oc2ccccn2)c1Cl
5. O=C1CCCN1CCNc1nc(Nc2ccc(Cl)c(Cl)c2)ncc1C(F)(F)F

Key:
0.61
0.52
0.92
0.9
0.24

Value source: ChEMBL document CHEMBL5303304
